Target: CVB3 3C^pro (Coxsackievirus B3, UniProt Q5UEA2)
Assay: FRET peptide cleavage assay
Type: biochemical
Listed here are molecules together with their documented IC50.
Express it in µM; write the number only.

{"molecule": "C#CC[C@H](NC(=O)/C=C/c1ccccc1)C(=O)N[C@@H](C[C@@H]1CCNC1=O)C(=O)C(=O)NCc1ccccc1 [11p]", "tgt": "CVB3 3C^pro (Coxsackievirus B3, UniProt Q5UEA2)", "output_unit": "µM", "obs_value": 8.93}

Notebook: O=C(/C=C/c1ccccc1)N[C@@H](Cc1ccc(F)cc1)C(=O)N[C@@H](C[C@@H]1CCNC1=O)C(=O)C(=O)NCc1ccccc1 [11m] , IC50 read as 8.69

Entry CCCC[C@H](NC(=O)/C=C/c1ccccc1)C(=O)N[C@@H](C[C@@H]1CCNC1=O)C(=O)C(=O)NCc1ccccc1 [11o] , IC50 reported as 5.2

Looking up O=C(/C=C/c1ccccc1)N[C@@H](CC1CCCC1)C(=O)N[C@@H](C[C@@H]1CCNC1=O)C(=O)C(=O)NCc1ccccc1 [11u] , I see its IC50 listed as 1.93
